Test: Cytotoxicity by MTT assay in Hs68 cells
Format: cell-based
Details: human, Hs68 cells (foreskin fibroblasts)
measuredMetric: viability at 48 h, 100 µg/mL

Form field viability at 48 h, 100 µg/mL, entry "CCCCCCCC/C=C\CCCCCCCC(=O)O" : > 90%

Form field viability at 48 h, 100 µg/mL, entry "CCCCCCCCCCCCCCCC(=O)O" : > 90%

Form field viability at 48 h, 100 µg/mL, entry "CCCCC/C=C\C/C=C\CCCCCCCC(=O)O" : > 90%

---

Test system: chorio-allantoic membrane of fertilized hen's eggs
Test: Hen's egg chorio-allantoic membrane
Settings: 30 µL applied, observed 300 s
measuredMetric: irritation score (IS)

Form field irritation score (IS), entry CCCCCCCCCCCCOS(=O)(=O)[O-].[Na+] [SLS, sodium lauryl sulphate] : 12.5 ± 0.3

Form field irritation score (IS), entry "CCCCC/C=C\C/C=C\CCCCCCCC(=O)O" : 0.0 ± 0.0

Form field irritation score (IS), entry "CCCCCCCCCCCCCCCC(=O)O" : 0.0 ± 0.0

Form field irritation score (IS), entry "CCCCCCCC/C=C\CCCCCCCC(=O)O" : 0.0 ± 0.0

---

Assay: Cytotoxicity by MTT assay in Hs68 cells
Assay type: cell-based
Details: human, Hs68 cells (foreskin fibroblasts)
measuredMetric: IC20 at 48 h

Form field IC20 at 48 h, entry CCCCCCCCCCCCCCCC(=O)O [palmitic acid] : > 100 µg/mL

Form field IC20 at 48 h, entry CCCCC/C=C\C/C=C\CCCCCCCC(=O)O [linoleic acid] : > 100 µg/mL

Form field IC20 at 48 h, entry CCCCCCCC/C=C\CCCCCCCC(=O)O [oleic acid] : > 100 µg/mL

---

Please provide measured viability at 48 h, 100 µg/mL for the entries that follow.
Assay: Cytotoxicity by MTT assay in HaCaT cells
Type: cell-based
Settings: human, HaCaT cells (immortalized epidermal keratinocytes)
Please give a number only; it is taken to be in %.

Form field viability at 48 h, 100 µg/mL, entry CCCCCCCCCCCCCCCC(=O)O [palmitic acid] : 75.9

Form field viability at 48 h, 100 µg/mL, entry CCCCCCCC/C=C\CCCCCCCC(=O)O [oleic acid] : 82.2

Form field viability at 48 h, 100 µg/mL, entry CCCCC/C=C\C/C=C\CCCCCCCC(=O)O [linoleic acid] : 73.8

---

System: chorio-allantoic membrane of fertilized hen's eggs
Assay: Hen's egg chorio-allantoic membrane
Settings: from IS
measuredMetric: irritation category

Form field irritation category, entry "CCCCCCCCCCCCCCCC(=O)O" : no irritant effect

Form field irritation category, entry "CCCCC/C=C\C/C=C\CCCCCCCC(=O)O" : no irritant effect

Form field irritation category, entry "CCCCCCCC/C=C\CCCCCCCC(=O)O" : no irritant effect

src = paper PMC10246574
